# target-or-system: human EHMT1 982-1266 (Homo sapiens)
# Sequence (Q9H9B1 982-1266): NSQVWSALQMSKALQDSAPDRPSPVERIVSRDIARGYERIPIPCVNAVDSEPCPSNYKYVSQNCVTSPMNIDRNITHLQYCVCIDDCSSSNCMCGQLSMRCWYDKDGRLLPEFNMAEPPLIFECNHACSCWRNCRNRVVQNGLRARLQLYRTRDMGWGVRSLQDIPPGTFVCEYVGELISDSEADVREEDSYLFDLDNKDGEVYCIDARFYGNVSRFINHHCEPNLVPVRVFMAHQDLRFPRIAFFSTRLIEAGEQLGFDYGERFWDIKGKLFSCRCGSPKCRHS
# experiment-description: EHMT1 enzyme assay on histone peptide substrate (3H-SAM SPA)
# run-parameters: EHMT1 IC50, recombinant human EHMT1 982-1266, histone peptide substrate
// reported IC50 per item

CNc1cc(C)nc(Nc2cc3c(c([C@H]4C[C@H]5CNC[C@H]5C4)c2)OCC3)n1 = 100 to 500 nM
Cc1cc(NC2CCC2)nc(Nc2cc3c(c(OCCCN4CCCC4)c2)OCC3)n1 = 500 to 2000 nM
CNc1cc(C)nc(Nc2cc3c(c(C4=CCNC(CF)CC4)c2F)OCC3)n1 (single isomer, unassigned) [Compound 371] = < 100 nM
[2H]Cc1cc(NC([2H])([2H])[2H])nc(Nc2cc3c(c(C4=CCNCCC4)c2)OCO3)n1 = < 100 nM
CNc1cc(C)nc(Nc2cc3c(c(C4=CCNCCC4)c2)OCCO3)c1 = 100 to 500 nM
Cc1cc(NCC(F)(F)F)nc(Nc2cc3c(c(C4=CCN(C)CCC4)c2)OCC3)n1 = 100 to 500 nM
CNc1cc(C)nc(Nc2cc3c(c(N4CCCNCC4)c2)OCCC3)n1 = 100 to 500 nM

[Q] Dear colleague, I am looking for the recorded IC50 of the following compound: `CNc1cc(C)nc(Nc2cc3c(c(C4=CCNCCC4)c2F)OCCC3(F)F)n1`
[A] < 100 nM

====

// reported pIC50 per item
# target-or-system: hERG potassium channels (Homo sapiens, UniProt Q12809)
# Sequence (Q12809 whole entry): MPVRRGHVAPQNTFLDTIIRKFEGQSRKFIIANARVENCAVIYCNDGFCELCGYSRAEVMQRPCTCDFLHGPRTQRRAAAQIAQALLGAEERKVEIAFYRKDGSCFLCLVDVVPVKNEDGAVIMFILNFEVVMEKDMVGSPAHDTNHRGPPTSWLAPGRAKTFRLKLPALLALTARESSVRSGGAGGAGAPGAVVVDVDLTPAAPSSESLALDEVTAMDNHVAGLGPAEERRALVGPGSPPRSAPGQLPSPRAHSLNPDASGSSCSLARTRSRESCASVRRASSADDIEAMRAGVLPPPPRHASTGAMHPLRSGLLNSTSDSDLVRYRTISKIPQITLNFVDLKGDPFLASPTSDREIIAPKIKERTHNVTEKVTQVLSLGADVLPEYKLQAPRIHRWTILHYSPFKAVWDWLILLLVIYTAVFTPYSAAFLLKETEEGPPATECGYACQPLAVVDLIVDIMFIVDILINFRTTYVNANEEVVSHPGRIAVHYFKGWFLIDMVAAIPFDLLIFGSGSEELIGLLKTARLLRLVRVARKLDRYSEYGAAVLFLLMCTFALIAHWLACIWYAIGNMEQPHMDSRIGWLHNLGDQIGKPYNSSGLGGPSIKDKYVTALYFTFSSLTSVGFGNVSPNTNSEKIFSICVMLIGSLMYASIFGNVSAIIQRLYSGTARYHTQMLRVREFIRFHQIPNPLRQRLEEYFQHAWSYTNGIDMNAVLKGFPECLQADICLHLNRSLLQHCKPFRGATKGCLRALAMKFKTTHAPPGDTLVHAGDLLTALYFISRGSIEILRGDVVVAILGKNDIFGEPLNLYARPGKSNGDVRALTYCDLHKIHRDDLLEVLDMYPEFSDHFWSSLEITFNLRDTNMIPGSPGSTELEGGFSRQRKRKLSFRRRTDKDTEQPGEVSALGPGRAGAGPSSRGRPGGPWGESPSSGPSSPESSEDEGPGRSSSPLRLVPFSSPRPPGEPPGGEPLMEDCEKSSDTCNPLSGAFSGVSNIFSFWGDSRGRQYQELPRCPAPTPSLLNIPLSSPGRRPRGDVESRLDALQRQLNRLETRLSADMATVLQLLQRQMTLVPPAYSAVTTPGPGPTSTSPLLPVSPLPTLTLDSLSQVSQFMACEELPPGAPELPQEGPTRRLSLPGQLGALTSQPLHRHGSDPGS
# experiment-description: In vitro hERG assay (SyncroPatch whole-cell recording)
# run-parameters: hERG IC50, SyncroPatch, room temperature
pIC50: −log10 of the molar value.

[Q] Dear colleague, I am looking for the recorded pIC50 of the following molecule: CNc1cc(C)nc(Nc2cc3c(c(C4CCCNCC4)c2)OCCO3)n1 (stereo not shown)
[A] < 5.00

[Q] Field entry: `CNc1cc(C)nc(Nc2cc(OCCCN3CCCC3)c3c(c2)OCCO3)n1`
[A] 5.30 to 5.70

[Q] Field entry: `COCCNc1cc(C)nc(Nc2cc3c(c(C4=CCN(C)CCC4)c2)OCC3)n1`
[A] 5.00 to 5.30

[Q] Field entry: CNc1cc(C)nc(Nc2cc3c(c(C4=CCNCCC4)c2F)OCC3C)n1 (single isomer, unassigned) [Compound 170]
[A] > 5.70

====

# target-or-system: human EHMT1 982-1266 (Homo sapiens)
# experiment-description: EHMT1 enzyme assay on histone peptide substrate (3H-SAM SPA)
# run-parameters: EHMT1 IC50, recombinant human EHMT1 982-1266, histone peptide substrate
pIC50: −log10 of the molar value.
measured-metric: pIC50

Record excerpt, results attached:
Cc1cc(N)nc(Nc2cc3c(c(OCCCN4CCCC4)c2)OCC3)n1 [Compound 115] = < 5.70
CNc1cc(C)nc(Nc2cc3c(c(C4=CCNCC(O)C4)c2C)OCCC3)n1 (single isomer, unassigned) [Compound 360] = 6.30 to 7.00
CCNc1nc(Nc2cc3c(c(C4=CCN(C)CCC4)c2F)OCC3)nc(C)c1F [Compound 241] = 6.30 to 7.00
CNc1cc(C)nc(Nc2cc3c(c(OCCCN4CCCC4)c2)OCC3)n1 [Compound 103] = 6.30 to 7.00
CNc1cc(C)nc(Nc2cc3c(c(C4=CCNCCC4)c2)OC(F)(F)O3)n1 [Compound 142] = > 7.00

Next:
[Q] Dear colleague, I am looking for the recorded pIC50 of the following compound: CNc1cc(C)nc(Nc2cc3c(c(C4=C[C@H]5CNC[C@H]5C4)c2)OCO3)n1 [Compound 347]
[A] 6.30 to 7.00

Origin of the recorded values: patent US20240368139A1
